Reported fold change of affinity values are given for each entry in this list.
Molecular target: T1, Human CD3eg linker (human)
T1 construct: Single chain: epsilon and gamma subunits of human CD3 joined by a 29-mer linker, Flag-tag at the C-terminus; also called recombinant human CD3
T1 chain: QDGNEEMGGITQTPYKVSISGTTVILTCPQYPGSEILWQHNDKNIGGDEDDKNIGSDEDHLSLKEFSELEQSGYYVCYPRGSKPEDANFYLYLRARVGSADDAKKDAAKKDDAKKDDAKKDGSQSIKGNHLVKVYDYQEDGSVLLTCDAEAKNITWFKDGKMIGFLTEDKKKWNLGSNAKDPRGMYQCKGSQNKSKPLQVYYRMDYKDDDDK
Test: Biacore SPR, vs template H183/L072
Just the number in fold, nothing appended.

Worked cases, answers included:
q: Given the entry H183/L072 VH N53V (antibody, name in Kabat numbering, V domains shown) VH: QVQLVESGGGLVQPGRSLRLSCAASGFTFSNAWMHWVRQAPGKGLEWVAQIKDKGVAYAAYYAPSVKGRFTISRDDSKNSIYLQMNSLKTEDTAVYYCHYVHYASASTVLPAFGVDAWGQGTTVTVSS VL: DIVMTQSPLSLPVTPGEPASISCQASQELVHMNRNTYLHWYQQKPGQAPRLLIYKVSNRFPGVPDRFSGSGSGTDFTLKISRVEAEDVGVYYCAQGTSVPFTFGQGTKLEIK , report its measured fold change of affinity.
a: 0.5

q: Given the entry H183/L072 VH G100hM (antibody, name in Kabat numbering, V domains shown) VH: QVQLVESGGGLVQPGRSLRLSCAASGFTFSNAWMHWVRQAPGKGLEWVAQIKDKGNAYAAYYAPSVKGRFTISRDDSKNSIYLQMNSLKTEDTAVYYCHYVHYASASTVLPAFMVDAWGQGTTVTVSS VL: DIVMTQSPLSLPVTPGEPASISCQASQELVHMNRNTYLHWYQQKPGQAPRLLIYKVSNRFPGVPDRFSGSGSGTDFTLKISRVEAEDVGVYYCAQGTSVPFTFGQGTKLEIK , report its measured fold change of affinity.
a: 4.2

Now for the binder whose fold change of affinity we want.
q: Given the entry H183/L072 VH A57I (antibody, name in Kabat numbering, V domains shown) VH: QVQLVESGGGLVQPGRSLRLSCAASGFTFSNAWMHWVRQAPGKGLEWVAQIKDKGNAYAIYYAPSVKGRFTISRDDSKNSIYLQMNSLKTEDTAVYYCHYVHYASASTVLPAFGVDAWGQGTTVTVSS VL: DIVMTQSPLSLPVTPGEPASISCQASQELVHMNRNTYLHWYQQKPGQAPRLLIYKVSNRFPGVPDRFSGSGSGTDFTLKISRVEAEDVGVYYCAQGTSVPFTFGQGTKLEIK , report its measured fold change of affinity.
a: 0.6

FYI, the data here is from patent US20210388087A1.
